This collection of values is drawn from PubChem BioAssay (NCI).

Assay: NCI Yeast Anticancer Drug Screen. Data for the sgs1 mgt1 strain (AID 161);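 further: 0% = growth of cultures given vehicle only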
Settings: S. cerevisiae sgs1 mgt1 strain, at 50.0 µM, stronger effect = higher value
About 79,000 compounds went through this panel and 15% of them were active in at least one assay; those are over-represented in the sample as a whole.
The following compounds are listed with their measured growth inhibition values.
All answers are understood in %, so give the number only.

Record excerpt, results attached:
>>> result_number("O=C1c2ccccc2C(=O)N1CC1CC(S(=O)(=O)c2ccccc2)=NO1 (stereo unspecified)")
-0.4
>>> result_number("O=C(O)/C(=C\\c1ccccc1[N+](=O)[O-])c1ccc(Cl)cc1")
-2.3
>>> result_number("O=C(Nc1nc2ccccc2n1Cc1ccc(Cl)cc1)C(=O)NC12CC3CC(CC(C3)C1)C2")
1
>>> result_number("N#CC(c1ccccc1)N(C(N)=O)c1ccccc1 (stereo unspecified)")
8.05
>>> result_number("CCNC(=S)NC1CCCCC1")
3.65
>>> result_number("O=C1OC(c2ccc([N+](=O)[O-])cc2)=N/C1=C\\c1ccc(Cl)c(Cl)c1")
43.6
>>> result_number("CC1(C)CS(=O)(=O)CC(C)(C)C(=N/N)/C1=N\\N")
-13.2
>>> result_number("O=C(/C=C/c1ccc(Cl)c(Cl)c1)c1ccccc1")
-7.9
>>> result_number("CCCC(=O)OCC(C)(C)CC(C)C")
-10.5
>>> result_number("COc1ccc(C(O)c2cc(C(F)(F)F)cc(C(F)(F)F)c2)cc1OC (stereo unspecified)")
11.2

Let us examine a further case.
Lab note: measured growth inhibition of CC1CN(C(=O)OCC23COC4(C)CCC(C)(OC2)N34)CC(C)O1 (stereo unspecified) was 6.9

----------
Test: NCI Yeast Anticancer Drug Screen. Data for the mec2-1 strain (AID 157)
Conditions: S. cerevisiae mec2-1 strain, at 50.0 µM, stronger effect = higher value
The panel holds about 79,000 compounds, 15% with a hit somewhere; the sample as a whole holds those more often.
observation.type: growth inhibition (%)
Report only the number, with the unit % understood.

>>> result_number("O=C(O)c1c[nH]c(=O)[nH]c1=O")
-5.4

Please turn your attention to the following entry.
Notebook: CC(C)CSC(SCC(C)C)C(O)C(O)C(O)CO (centres undefined) , growth inhibition read as 3

----------
Experiment: NCI Yeast Anticancer Drug Screen. Data for the mlh1 rad18 strain (AID 175)
Details: S. cerevisiae mlh1 rad18 strain growth inhibition; at 50.0 µM; stronger effect = higher value
This is part of a sample that, as a whole, favours compounds with a hit. Of some 79,000 tested, about 15% had one in any assay.
Measured growth inhibition, listed per entry for reference.
Give just the numeric value; % need not be written.

Example cases with answers are listed next.
>>> result_number("Cc1ccc(S(=O)(=O)Nc2ccc3nc(C)oc3c2)cc1")
17
>>> result_number("O=[N+]([O-])c1ccc(-c2ccc(-c3ccccc3)cc2)cc1")
-3.6
>>> result_number("CCCCCCCCCCCCOc1ccc(C(C)(C)C)cc1")
-11.7

// CCC1(C)C=Cc2c(cc(OC)c3c(=O)c4ccccc4n(C)c23)O1 (configuration not stated) : growth inhibition value = -26.4

Please fill in: growth inhibition reported for COC1=C(NCCc2ccccc2)C(=O)C(OC)=C(NCCc2ccccc2)C1=O = -11.6

Looking up c1ccc(C(c2ccc3c(c2)CCCC3)C(c2ccccc2)(c2ccccc2)c2ccccc2)cc1 (configuration not stated) , I see its growth inhibition listed as 25.4

Recorded result, NC(=O)c1n[nH]c(C2OC(CO)C(O)C2O)n1 (configuration not stated) , growth inhibition: -7.5

For reference, reported growth inhibition for CNCC(OC(C)C)c1ccc(O)c(O)c1 (configuration not stated) stands at 16.2

For record ClNc1nc(NCl)nc(NCl)n1 the listed growth inhibition is -19.1

Notebook: Cc1nc(Nc2ccccc2C)c2ccsc2n1 , growth inhibition read as 48

// field: growth inhibition; key: COc1nc(N)c(NC(C)=O)c(=O)n1C ; value = 9

Data point: CCCC(=O)c1ccc(O)cc1 ; growth inhibition = 0.2

----------
growth inhibition values by entry
Assay: NCI Yeast Anticancer Drug Screen. Data for the cln2 rad14 strain (AID 165);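 further: 0% = growth equal to vehicle treated cultures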
Settings: S. cerevisiae cln2 rad14 strain, at 50.0 µM, stronger effect = higher value
Description: Growth inhibition of yeast strains with defined genetic alterations is measured as a screen for potential anti-cancer activity. Selected strains with alterations in DNA damage repair or cell cycle control were exposed to compounds and growth inhibition was measured relative to vehicle treated controls. The strain used in this assay is cln2 rad14
This is part of a sample that, as a whole, favours compounds with a hit. Of some 79,000 tested, about 15% had one in any assay.
Your answer is read as %, so omit the unit and give the number.

Worked set:
>>> result_number("CCC(Cc1ccccc1)OC(=O)c1ccccc1C(=O)O (configuration not stated)")
-43.3
>>> result_number("O=c1oc2ccc(Br)cc2cc1CCS")
10.8
>>> result_number("Nc1ncnc2nc(I)[nH]c12")
-6.75
>>> result_number("Cc1cc2c(cc1Cl)SC(NNc1ccc([N+](=O)[O-])cc1)=NS2(=O)=O")
-7.85
>>> result_number("Fc1ccc(N2C(c3ccccc3)=N[C@@H](N3CCOCC3)[C@@H]2N2CCOCC2)cc1")
-19.9
>>> result_number("N#Cc1c(-c2ccccc2)cc(-c2ccc(N)cc2)[nH]c1=O")
33.4

Recorded growth inhibition (molecule O=C(/C=N\O)Nc1ccccc1O ): -11.6

----------
Assay: NCI Yeast Anticancer Drug Screen. Data for the sgs1 mgt1 strain (AID 161);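 further: 0% = growth of cultures given vehicle only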
Settings: S. cerevisiae sgs1 mgt1 strain, at 50.0 µM, stronger effect = higher value
Compounds without any hit were thinned out: in the full panel of roughly 79,000, 15% have a hit.
observation.type: growth inhibition (%)
Numbers only; they are read as %.

>>> result_number("CC1=C/C(=C(/c2cccc(S(=O)(=O)O)c2)c2cc(C)c(O)c(C(=O)O)c2)C=C(C(=O)O)C1=O")
-3.7

Switching to the query record.
Notebook: CCCCCCC(=O)c1ccco1 , growth inhibition read as -1.05

----------
Assay: NCI Yeast Anticancer Drug Screen. Data for the mlh1 rad18 strain (AID 175)
Conditions: S. cerevisiae mlh1 rad18 strain growth inhibition; at 50.0 µM; stronger effect = higher value
Description: Growth inhibition of yeast strains with defined genetic alterations is measured as a screen for potential anti-cancer activity. Selected strains with alterations in DNA damage repair or cell cycle control were exposed to compounds and growth inhibition was measured relative to vehicle treated controls. The strain used in this assay is mlh1 rad18
The panel holds about 79,000 compounds, 15% with a hit somewhere; the sample as a whole holds those more often.
observation.type: growth inhibition (%)
Write the value in % as a bare number.

>>> result_number("C=C1C(=O)OC2C[C@@]3(C)CCCC(=C)C3CC12 (stereo partly specified)")
13

Per the records, this compound ( NC(=O)NC(N)=O ) has growth inhibition equal to 21.9

Lab note: Cc1ccc(S(=O)(=O)OCC2COC(C(C)C)OC2)cc1 (stereo unspecified) gave growth inhibition of -1.25

growth inhibition reported for this compound O=S(=O)(O)c1ccc2c(N=Nc3cccc4ccccc34)c(O)c(S(=O)(=O)O)cc2c1 : 23.1

Per the records, this compound ( CN(C)c1ccc(/C=N\N=C\c2ccco2)cc1 ) has growth inhibition equal to 10.1

For this compound ( CCCCCCC(O)CCCCCC ), measured growth inhibition is -12.3

----------
Assay: NCI Yeast Anticancer Drug Screen. Data for the rad50 strain (AID 155);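 further: 0% = growth of vehicle-only cultures of the same strain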
Details: S. cerevisiae rad50 strain growth inhibition; at 50.0 µM; stronger effect = higher value
About 79,000 compounds went through this panel and 15% of them were active in at least one assay; those are over-represented in the sample as a whole.
observation.type: growth inhibition (%)
Numeric only. Scale: %

Here's what some known entries look like.
>>> result_number("CCC(C)OC(=O)/C(Br)=C1/OC(=O)c2ccccc2-c2ccccc21 (stereo unspecified)")
-1.55
>>> result_number("CC1CN(C(=O)OCC23COC4(C)CCC(C)(OC2)N34)CC(C)O1 (stereo unspecified)")
2.6
>>> result_number("O=C(C[n+]1cccc(Cl)c1)c1ccccc1")
-3.55
>>> result_number("CCC1(C)OCC(C)(C)C(C(C)C)O1 (stereo unspecified)")
-13.7
>>> result_number("CC(C#N)(Nc1ccccc1)c1ccccc1 (stereo unspecified)")
0.6

For record CCC(C#N)(C(=O)OC)/C(C)=C/C(C)C (stereo unspecified) the listed growth inhibition is 7.95

----------
Assay: NCI Yeast Anticancer Drug Screen. Data for the sgs1 mgt1 strain (AID 161);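 further: 0% = growth of cultures given vehicle only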
Conditions: S. cerevisiae sgs1 mgt1 strain, at 50.0 µM, stronger effect = higher value
About 79,000 compounds went through this panel and 15% of them were active in at least one assay; those are over-represented in the sample as a whole.
yes means recorded growth inhibition is 10% or above; no means it is below 10%.

The following molecules have reported results that may help.
>>> class_assignment("COc1cccc(/C(C#N)=N/NC(=O)c2nc[nH]c2C)c1")
"yes"
>>> class_assignment("CCOc1ccc(N2C(=O)NC3(c4ccccc4)N(C)C(=O)N(C)C23c2ccccc2)cc1 (stereo not given)")
"yes"
>>> class_assignment("O=C(Nc1cccc(Cl)c1)OCC#CCOC(=O)Nc1cccc(Cl)c1")
"no"

query: Say whether COc1ccc(CCCCl)c(C2=NCCc3ccccc32)c1 shows growth inhibition of 10% or more.
result: no

query: # check: growth inhibition of CSc1nc(-c2ccc(Cl)cc2)c(C#N)c(=O)n1C1OC(COC(C)=O)C(OC(C)=O)C(OC(C)=O)C1OC(C)=O (stereo not given) is greater than or equal to 10%
result: yes
